Origin of the recorded values: ChEMBL document CHEMBL1201862

Target: Protein RecA (Mycobacterium tuberculosis, UniProt P9WHJ3)
Sequence (P9WHJ3 whole entry): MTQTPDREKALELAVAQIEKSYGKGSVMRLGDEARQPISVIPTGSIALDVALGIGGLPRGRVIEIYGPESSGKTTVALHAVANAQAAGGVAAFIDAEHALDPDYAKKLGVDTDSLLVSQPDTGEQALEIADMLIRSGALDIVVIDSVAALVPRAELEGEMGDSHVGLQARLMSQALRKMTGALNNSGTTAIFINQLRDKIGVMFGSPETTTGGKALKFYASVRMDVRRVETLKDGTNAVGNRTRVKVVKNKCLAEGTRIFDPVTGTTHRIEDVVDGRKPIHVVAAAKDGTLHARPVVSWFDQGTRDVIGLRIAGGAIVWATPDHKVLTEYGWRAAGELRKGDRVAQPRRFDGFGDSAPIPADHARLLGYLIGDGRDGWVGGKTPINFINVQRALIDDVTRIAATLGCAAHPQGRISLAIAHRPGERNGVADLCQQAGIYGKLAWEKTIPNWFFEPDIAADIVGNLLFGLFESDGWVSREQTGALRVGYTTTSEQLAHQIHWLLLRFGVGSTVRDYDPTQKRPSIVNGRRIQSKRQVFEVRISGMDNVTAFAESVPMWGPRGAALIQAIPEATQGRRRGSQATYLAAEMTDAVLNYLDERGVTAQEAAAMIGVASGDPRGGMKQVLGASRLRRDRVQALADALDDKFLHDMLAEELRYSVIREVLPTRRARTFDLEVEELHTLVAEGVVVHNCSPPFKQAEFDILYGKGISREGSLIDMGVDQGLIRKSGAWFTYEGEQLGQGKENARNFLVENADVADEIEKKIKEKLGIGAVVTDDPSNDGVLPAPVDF
Test: Fluorescence Cell-Free Homogeneous Dose Retest to Identify Inhibitors of RecA-Intein Splicing Activity. [Related pubchem assays (depositor defined):AID2097, AID2223, AID489010, AID492950]
Assay type: functional
The source made the active and inactive calls. Rule as the data show it: actives have a measured EC50 and inactives only a lower limit.
Could you please pick one outcome from this set? Y = active, N = inactive

| MOLECULE | CATEGORY |
| --- | --- |
| Cn1ccnc1Sc1cc(NCCCO)c([N+](=O)[O-])c2nonc12 | Y |
| Cc1ccc(Sc2ncnc3onc(C)c23)cc1 | Y |
| COc1ccc(C(O)c2nccc3cc(OC)c(OC)cc23)cc1OC (stereo unspecified) | Y |
| Cc1[nH]n(C(N)=S)c(=O)c1C(c1ccccc1)C(C#N)C#N (stereo unspecified) | Y |
| CCN1CCN(c2c(Cl)cccc2NC(=O)c2ccc3c(c2)OCCO3)CC1 | N |

Would you mind telling me which call this test gave CS(=O)(=O)c1ncc(Cl)c(C(=O)Nc2ccc(N3CCOCC3)cc2)n1 ?
Y

Would you mind telling me which call this test gave Cc1[nH]n(-c2ccccc2)c(=O)c1C(c1ccc(O)c([N+](=O)[O-])c1)c1c(C)[nH]n(-c2ccccc2)c1=O ?
Y

Would you mind telling me which call this test gave CCc1ccc(NC(=O)c2nc(S(=O)(=O)Cc3ccccc3)ncc2Cl)cc1 ?
Y

Would you mind telling me which call this test gave COc1cc(/C=C/c2sc3ccccc3[n+]2CCCS(=O)(=O)[O-])ccc1O ?
Y

Would you mind telling me which call this test gave COc1cc(/C=C2/C(=O)N(c3ccc(C)c(C)c3)N=C2C)cc([N+](=O)[O-])c1O ?
Y

Would you mind telling me which call this test gave Cc1cc(Sc2nnc(/N=C/N(C)C)s2)c2ccccc2n1 ?
Y
